target: Jnk1a1 (Homo sapiens); test: Jnk1a1 kinase assay; format: biochemical; conditions: 10 μM compound; read-out: Jnk1a1 percent of inhibition
Sequence (P45983 1-384 isoform P45983-2): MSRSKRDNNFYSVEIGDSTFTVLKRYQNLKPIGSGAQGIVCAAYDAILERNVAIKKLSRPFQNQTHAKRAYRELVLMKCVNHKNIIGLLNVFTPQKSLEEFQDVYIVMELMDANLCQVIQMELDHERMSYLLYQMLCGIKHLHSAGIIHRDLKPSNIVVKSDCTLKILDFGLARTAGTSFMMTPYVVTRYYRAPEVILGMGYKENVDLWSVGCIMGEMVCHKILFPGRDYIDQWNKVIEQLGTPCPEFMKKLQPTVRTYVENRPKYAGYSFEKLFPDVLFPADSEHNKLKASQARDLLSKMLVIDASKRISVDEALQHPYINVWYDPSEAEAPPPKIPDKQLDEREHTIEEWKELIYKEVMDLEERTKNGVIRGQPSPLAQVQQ
Kindly supply the reported inhibition at 10 µM values for the records listed here.
# number only, unit % dropped from output

Task: Item Nc1ccc(Nc2ncnc3sc4c(c23)CCCC4)cc1 has what recorded inhibition at 10 µM?
Output: 20

Task: Item N#Cc1cccc(Nc2ncnc3sc4c(c23)CCCC4)c1 has what recorded inhibition at 10 µM?
Output: -3

Task: Item Clc1cccc(Nc2nc(C3CC3)nc3sc4c(c23)CCCC4)c1 has what recorded inhibition at 10 µM?
Output: -6

Task: Item Oc1cccc(Nc2nc(C3CC3)nc3sc4ccccc4c23)c1 has what recorded inhibition at 10 µM?
Output: -2

Task: Item Nc1cccc(Nc2ncnc3sc4c(c23)CCCC4)c1 has what recorded inhibition at 10 µM?
Output: 6

Task: Item Brc1cccc(Nc2ncnc3sc4c(c23)CCCC4)c1 has what recorded inhibition at 10 µM?
Output: 4

Task: Item N#Cc1cccc(Nc2nc(C3CC3)nc3sc4c(c23)CCCC4)c1 has what recorded inhibition at 10 µM?
Output: -4

Task: Item Fc1cccc(Nc2ncnc3sc4ccccc4c23)c1 has what recorded inhibition at 10 µM?
Output: -2

Task: Item Fc1cccc(Nc2ncnc3sc4c(c23)CCCC4)c1 has what recorded inhibition at 10 µM?
Output: -3

Task: Item Brc1cccc(Nc2ncnc3sc4ccccc4c23)c1 has what recorded inhibition at 10 µM?
Output: -10
